- Tested on: Klebsiella aerogenes DSM 30053
- Measurement Notes: fold change of Putrescine concentration vs plate DMSO controls (fold change (ratio)); higher = more amine produced, active = hit call of the paper (significant change in both replicates, either direction)
- Measurement Conditions: 20 µM; incubation time: 27 h, anaerobic, 37 °C
fold change of Putrescine concentration of 1 or higher: Y. Under 1: N.

Hi, just wondering whether CC1=NNC(=O)N(/N=C/c2cccnc2)C1 shows fold change of Putrescine concentration of 1 or higher.
N

Hi, just wondering whether CC(C)(C)C(O)(CCc1ccc(Cl)cc1)Cn1cncn1 (centres undefined) shows fold change of Putrescine concentration of 1 or higher.
Y

Hi, just wondering whether CSc1nc(NC(C)C)nc(NC(C)C)n1 shows fold change of Putrescine concentration of 1 or higher.
Y

Hi, just wondering whether COCc1cnc(C2=NC(C)(C(C)C)C(=O)N2)c(C(=O)O)c1 (centres undefined) shows fold change of Putrescine concentration of 1 or higher.
N

Hi, just wondering whether N#CC(CCc1ccc(Cl)cc1)(Cn1cncn1)c1ccccc1 (centres undefined) shows fold change of Putrescine concentration of 1 or higher.
N

Hi, just wondering whether Fc1ccc([C@]2(Cn3cncn3)O[C@H]2c2ccccc2Cl)cc1 (racemic) shows fold change of Putrescine concentration of 1 or higher.
N

====

- Tested on: Ruminococcus gnavus DSM 108212
- Measurement Notes: fold change of Tryptamine concentration vs plate DMSO controls (fold change (ratio)); higher = more amine produced, active = hit call of the paper (significant change in both replicates, either direction)
- Measurement Conditions: 20 µM; incubation time: 27 h, anaerobic, 37 °C
Counter-ions that a name gives are not always drawn.
fold change of Tryptamine concentration of 1 or higher: Criterion met. Under 1: Criterion not met.

Hi, just wondering whether C[C@@H]1[C@@H](c2ccc(Cl)cc2)SC(=O)N1C(=O)NC1CCCCC1 shows fold change of Tryptamine concentration of 1 or higher.
Criterion not met

Hi, just wondering whether CCCN(CCC)N=O [NDPA (N-nitrosodipropylamine)] shows fold change of Tryptamine concentration of 1 or higher.
Criterion met

Hi, just wondering whether NC(=O)OCCCc1ccccc1 [Phenprobamate] shows fold change of Tryptamine concentration of 1 or higher.
Criterion not met

Hi, just wondering whether CCCCC(C#N)(Cn1cncn1)c1ccc(Cl)cc1 (configuration not stated) shows fold change of Tryptamine concentration of 1 or higher.
Criterion met

Hi, just wondering whether COP(N)(=O)SC (configuration not stated) shows fold change of Tryptamine concentration of 1 or higher.
Criterion met

Hi, just wondering whether NCC(O)c1ccc(O)cc1 (configuration not stated) [Octopamine hydrochloride] shows fold change of Tryptamine concentration of 1 or higher.
Criterion not met

Hi, just wondering whether CCC(C)(c1ccc(O)cc1)c1ccc(O)cc1 [Bisphenol B] shows fold change of Tryptamine concentration of 1 or higher.
Criterion not met

Hi, just wondering whether NCC(CC(=O)O)c1ccc(Cl)cc1 (configuration not stated) [Baclofen] shows fold change of Tryptamine concentration of 1 or higher.
Criterion met

====

- Test system: Clostridium sporogenes DSM 1664
- Measurement Notes: growth (OD595) fold change vs plate DMSO controls (fold change (ratio)); higher = more growth
- Measurement Conditions: 20 µM; incubation time: 27 h, anaerobic, 37 °C
Property: growth
The answer should be a number; do not append a unit.

Report growth for COC[C@@H](NC(C)=O)C(=O)NCc1ccccc1 [Lacosamide] please.
1.07

Report growth for C[C@]12CC[C@H](O)C[C@H]1CC[C@@H]1[C@@H]2C[C@@H](O)[C@]2(C)[C@@H](C3=CC(=O)OC3)CC[C@]12O [Digoxigenin] please.
0.957

Report growth for CCOP(=S)(OCC)Oc1cc(C)nc(C(C)C)n1 please.
0.996

Report growth for CN/C(=N\[N+](=O)[O-])NCc1cnc(Cl)s1 please.
0.943

Report growth for CCC1(C)CC(=O)NC(=O)C1 [Bemegride] please.
1.08
